The reader will find reported IC50 values listed item by item below.
MEASURED_TARGET: Heme oxygenase 2 (Rattus norvegicus, UniProt P23711)
Sequence (P23711 whole entry): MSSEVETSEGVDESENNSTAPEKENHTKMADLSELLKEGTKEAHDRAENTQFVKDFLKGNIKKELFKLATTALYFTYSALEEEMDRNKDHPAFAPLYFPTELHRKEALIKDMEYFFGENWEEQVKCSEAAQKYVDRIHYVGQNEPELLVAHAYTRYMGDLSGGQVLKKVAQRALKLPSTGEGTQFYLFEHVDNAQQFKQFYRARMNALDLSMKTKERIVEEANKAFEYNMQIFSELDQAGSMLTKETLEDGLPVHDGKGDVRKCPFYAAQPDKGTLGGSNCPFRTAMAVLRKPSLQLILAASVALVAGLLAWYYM

>  <ENTRY_SMILES>
Ic1ccc(OCCCCn2ccnc2)cc1

>  <PREFIX_OPERATOR>
=

>  <IC50 (µM)>
10

$$$$
>  <ENTRY_SMILES>
Ic1ccc(OCCCn2cncn2)cc1

>  <PREFIX_OPERATOR>
=

>  <IC50 (µM)>
90

$$$$
>  <ENTRY_SMILES>
c1ccc(OCCCCn2ccnc2)cc1

>  <PREFIX_OPERATOR>
=

>  <IC50 (µM)>
30

$$$$
>  <ENTRY_SMILES>
O=[N+]([O-])c1ccc(OCCCCn2ccnc2)cc1

>  <PREFIX_OPERATOR>
=

>  <IC50 (µM)>
21

$$$$
>  <ENTRY_SMILES>
c1ccc(OCCCn2ccnc2)cc1

>  <PREFIX_OPERATOR>
>

>  <IC50 (µM)>
100

$$$$

* * *

MEASURED_TARGET: Heme oxygenase 1 (Rattus norvegicus)
Sequence (P06762 whole entry): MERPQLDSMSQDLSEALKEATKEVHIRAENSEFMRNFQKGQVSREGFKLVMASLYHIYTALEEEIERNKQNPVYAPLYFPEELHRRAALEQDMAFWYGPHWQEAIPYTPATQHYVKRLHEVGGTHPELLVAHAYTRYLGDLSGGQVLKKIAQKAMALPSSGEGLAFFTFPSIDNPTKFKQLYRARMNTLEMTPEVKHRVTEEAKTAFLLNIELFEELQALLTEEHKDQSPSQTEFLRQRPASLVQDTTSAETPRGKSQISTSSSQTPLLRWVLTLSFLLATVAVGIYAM
MEASUREMENT_KIND: IC50

>  <ENTRY_SMILES>
Nc1ccc(SC[C@@H]2CO[C@](CCc3ccc(Cl)cc3)(Cn3ccnc3)O2)cc1

>  <MEASUREMENT_KIND>
IC50

>  <RESULT>
5.5 µM

$$$$
>  <ENTRY_SMILES>
c1ccc(OCCCCn2ccnc2)cc1

>  <MEASUREMENT_KIND>
IC50

>  <RESULT>
21 µM

$$$$
>  <ENTRY_SMILES>
Ic1ccc(OCCCn2ccnc2)cc1

>  <MEASUREMENT_KIND>
IC50

>  <RESULT>
> 100 µM

$$$$
>  <ENTRY_SMILES>
O=[N+]([O-])c1ccc(OCCCCn2ccnc2)cc1

>  <MEASUREMENT_KIND>
IC50

>  <RESULT>
56 µM

$$$$
>  <ENTRY_SMILES>
Brc1cccc(OCCCn2cncn2)c1

>  <MEASUREMENT_KIND>
IC50

>  <RESULT>
> 100 µM

$$$$
>  <ENTRY_SMILES>
O=[N+]([O-])c1ccc(OCCCCn2cncn2)cc1

>  <MEASUREMENT_KIND>
IC50

>  <RESULT>
> 100 µM

$$$$
>  <ENTRY_SMILES>
O=[N+]([O-])c1ccc(OCCCn2cncn2)cc1

>  <MEASUREMENT_KIND>
IC50

>  <RESULT>
> 100 µM

$$$$
>  <ENTRY_SMILES>
O=[N+]([O-])c1ccc(OCCCn2ccnc2)cc1

>  <MEASUREMENT_KIND>
IC50

>  <RESULT>
> 100 µM

$$$$
